TEST_PROTOCOL: NCI Yeast Anticancer Drug Screen. Data for the bub3 strain (AID 167)
SETUP_CONDITIONS: S. cerevisiae bub3 mutant strain, at 50.0 µM (retest, dose inferred, filed as 5.0), active compounds read high
The panel holds about 79,000 compounds, 15% with a hit somewhere; the sample as a whole holds those more often.
METRIC_NAME: growth inhibition (%)
State just the number; it will be interpreted in %.

Answered examples (2):
MOLECULE	growth inhibition [%]
O=C(Nc1ccc(Cl)c(Cl)c1)OCc1ccco1	81
CCCCN(CCCC)C(=O)C(C)OC(C)=O (stereo not drawn)	-8

Lab note: measured growth inhibition of `NC(=S)N/N=C\c1nccc2c(N)cccc12` was 85

Lab note: measured growth inhibition of `NC(=S)N/N=C/c1ncccc1O` was -78

Lab note: measured growth inhibition of `CCCCCCCCCCCCSC(=N)N` was 95

Lab note: measured growth inhibition of `O=C1C=CC(O)=CC1=P(c1ccccc1)(c1ccccc1)c1ccccc1` was 2

Lab note: measured growth inhibition of `O=C1CCC2(C=C(Br)C(=O)C(Br)=C2)O1` was 100

Lab note: measured growth inhibition of `NC(=Nc1nc(-c2ccccn2)cc2ccccc12)c1ccccn1` was 77

Lab note: measured growth inhibition of O=C1C=CC2C3C(=O)N(c4ccccc4)C(=O)C3C1N2Cc1ccccc1 (stereo not drawn) was 78

Lab note: measured growth inhibition of `CC(=O)Nc1ccc(/C=N/NC(=S)NCC(C)C)cc1` was 9

Lab note: measured growth inhibition of `O=[N+]([O-])/C=C/c1cccs1` was 100

Lab note: measured growth inhibition of `O=C(c1ccc(O)c(Br)c1)c1ccc(O)c(Br)c1` was 99

Lab note: measured growth inhibition of `COC(=O)c1ccc(Cl)c(NN)c1` was 99

---

TEST_PROTOCOL: NCI Yeast Anticancer Drug Screen. Data for the bub3 strain (AID 167)
SETUP_CONDITIONS: S. cerevisiae bub3 mutant strain, at 50.0 µM
This is part of a sample that, as a whole, favours compounds with a hit. Of some 79,000 tested, about 15% had one in any assay. Calls of active or inactive are those of the source. Cut-off read from the data, not from the text of the source: active = growth inhibition above about 70%; inactive = the rest.
Your reply should match one of these outcome classes. 1 for active, -1 for inactive

Q: Hey, what did the test say about CCC(C)C(N)C(=O)NC(CC(N)=O)C(=O)NC(CC(C)C)C(=O)NC(CCCCN)C(=O)NC(C)C(=O)NC(CC(C)C)C(=O)NC(C)C(=O)NC(C)C(=O)NC(CC(C)C)C(=O)NC(C)C(=O)NC(CCCCN)C(=O)NC(CCCCN)C(=O)NC(C(=O)NC(CC(C)C)C(N)=O)C(C)CC (stereo not drawn) ?
Ans: 1

Q: Hey, what did the test say about `CC1(C)CCCC2=C1C(=O)N(SC(Cl)(Cl)Cl)C2=O` ?
Ans: 1

Q: Hey, what did the test say about OC(c1cc2ccc(C(F)(F)F)cc2c2cc(C(F)(F)F)ccc12)C1CCCCN1 (stereo not drawn) ?
Ans: 1

Q: Hey, what did the test say about COc1ccc2c(c1OC)OCC(CN(C)C)C2=O (stereo not drawn) ?
Ans: 1

Q: Hey, what did the test say about Nc1nc2ncc(CNc3ccc(C(=O)NC(CCC(=O)NC(CCC(=O)NC(CCC(=O)NC(CCC(=O)NC(CCC(=O)O)C(=O)O)C(=O)O)C(=O)O)C(=O)O)C(=O)O)cc3)nc2c(=O)[nH]1 (stereo not drawn) ?
Ans: -1

Values compiled from PubChem BioAssay (NCI).
